assay: binders from COS7 lysate, DM2A8 probe, primary screen, torsin A project, cell lysate, small-molecule microarray, fluorescence 635/667 (AID 1065); settings: higher = more signal, COS7 lysate expressing mutant human TOR1A
Use 0.3 as the dividing line for composite z-score, with the line itself on the satisfied side and lower values as not satisfied.

CO[C@@H]1COC(=O)[C@H](C)NC(=O)[C@@H](C)COC(=O)CCC[C@H]1C | satisfied
CCN1C(=O)[C@H]2[C@H]3[C@H](O)[C@H](O)CC(=NOC(C)CN4CCCCc5nc(C)c(C)cc54)[C@@H]3CC[C@H]2C1=O (stereo partly drawn) | satisfied
CCOC(=O)C[C@H]1[C@H](OC(=O)c2cc3ccccc3oc2=O)[C@@H](NC(=O)c2ccc3ccccc3n2)c2cc(OCCCO)ccc2N1C(=O)c1ccccc1 | satisfied
O=C1[C@H]2[C@H]3[C@H](O)[C@H](O)CC(=NO[C@@H]4O[C@H](CO)[C@@H](O)[C@H](O)[C@H]4O)[C@H]3CC[C@H]2C(=O)N1Cc1ccc2c(c1)OCO2 | satisfied
COc1ccc(CCNC(=O)[C@@H]2c3ccccc3C(=O)N(c3ccc(C)cn3)[C@H]2c2ccc(CO)cc2)cc1 | not satisfied
CC(=O)OC[C@H]1O[C@H](CCON=C(C)CCN2CCc3nc(-c4ccccc4)c(-c4ccccc4)cc3C2)C=C[C@@H]1OC(C)=O | satisfied
O=C1NC(=O)C2C1C=CC(C(O)Cc1ccccc1)N2Nc1ccccn1 (stereo not drawn) | not satisfied

Measured values drawn from PubChem BioAssay for this set.
